- TESTED_TARGET: CD28 (human) (UniProt P10747)
- ASSAY_TEXT: flow cytometry, Jurkat/IL2 reporter cells (endogenous CD28); MFI ratio to WT CD80 ECD-Fc (R&D)
OBSERVED_PROPERTY: Fold change to WT (fold)

>  <BINDER>
variant CD80 IgV-Fc H18Y/Y31H/E35D/M47V/A71G/L85Q (Fc fusion) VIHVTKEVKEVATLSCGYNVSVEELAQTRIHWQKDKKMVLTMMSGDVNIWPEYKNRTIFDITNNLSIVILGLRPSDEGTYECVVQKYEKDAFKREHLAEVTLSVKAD

>  <UNIT_NAME>
fold

>  <VALUE_REPORTED>
0.04

$$$$
>  <BINDER>
variant CD80 IgV-Fc H18Y/Q33L/E35D/M47I (Fc fusion) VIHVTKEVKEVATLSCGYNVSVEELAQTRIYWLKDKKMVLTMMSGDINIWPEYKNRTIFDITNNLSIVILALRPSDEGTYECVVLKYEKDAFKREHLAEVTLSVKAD

>  <UNIT_NAME>
fold

>  <VALUE_REPORTED>
0.04

$$$$
>  <BINDER>
variant CD80 IgV-Fc Q33L/E35D/M47V/L85Q (Fc fusion) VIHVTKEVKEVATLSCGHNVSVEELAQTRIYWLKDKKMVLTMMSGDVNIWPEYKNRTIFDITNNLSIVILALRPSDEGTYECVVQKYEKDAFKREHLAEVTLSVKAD

>  <UNIT_NAME>
fold

>  <VALUE_REPORTED>
0.04

$$$$
>  <BINDER>
variant CD80 IgV-Fc Q33L/E35D/M47I/L85Q (Fc fusion) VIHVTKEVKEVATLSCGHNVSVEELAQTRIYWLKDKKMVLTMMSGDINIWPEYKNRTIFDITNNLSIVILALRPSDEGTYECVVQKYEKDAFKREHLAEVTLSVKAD

>  <UNIT_NAME>
fold

>  <VALUE_REPORTED>
0.04

$$$$
